These entries and their values trace back to ChEMBL document CHEMBL2375238.

- system-under-test: Tyrosine-protein phosphatase non-receptor type 1 (Homo sapiens) (UniProt P18031)
- Sequence (P18031 whole entry): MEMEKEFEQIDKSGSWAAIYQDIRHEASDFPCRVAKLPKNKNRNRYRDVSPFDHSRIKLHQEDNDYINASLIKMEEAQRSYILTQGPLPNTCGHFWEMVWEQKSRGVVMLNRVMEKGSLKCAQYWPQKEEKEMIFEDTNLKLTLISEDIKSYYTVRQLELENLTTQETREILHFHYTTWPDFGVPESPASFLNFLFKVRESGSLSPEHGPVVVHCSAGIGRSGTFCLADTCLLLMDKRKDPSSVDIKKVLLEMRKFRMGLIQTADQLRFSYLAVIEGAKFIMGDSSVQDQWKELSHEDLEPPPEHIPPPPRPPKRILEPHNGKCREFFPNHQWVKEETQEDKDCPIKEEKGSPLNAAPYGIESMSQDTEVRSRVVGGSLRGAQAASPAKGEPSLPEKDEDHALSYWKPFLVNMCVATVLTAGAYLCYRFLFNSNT
- experiment-summary: Inhibition of PTP1B (unknown origin) expressed in Escherichia coli expression system using p-nitrophenyl phosphate as substrate assessed as release of p-nitrophenol at 10 ug/mL incubated for 10 mins prior to substrate addition measured after 30 mins relative to control
recorded-endpoint: Imax

{"columns": ["structure-string", "system-under-test", "recorded-endpoint", "result"],
 "data": [
  ["CC1(C)CC[C@@]23CC[C@]4(C)[C@@](OC2=O)([C@@H]3C1)[C@@H](O)C[C@@H]1[C@@]2(C)CC[C@H](O[C@H]3O[C@H](CO)[C@@H](O)[C@H](O)[C@@H]3O)C(C)(C)[C@@H]2CC[C@]14C", "Tyrosine-protein phosphatase non-receptor type 1 (Homo sapiens) (UniProt P18031)", "Imax", "2.9%"],
  ["COC(=O)CCCCCNC(=O)[C@]12CCC(C)(C)C[C@H]1C1=CC[C@@H]3[C@@]4(C)CC[C@H](O[C@@H]5O[C@H](CO)[C@@H](O)[C@H](O)[C@H]5O)C(C)(C)[C@@H]4CC[C@@]3(C)[C@]1(C)CC2", "Tyrosine-protein phosphatase non-receptor type 1 (Homo sapiens) (UniProt P18031)", "Imax", "5.82%"],
  ["CC1(C)CC[C@@]23CC[C@]4(C)[C@@](OC2=O)([C@@H]3C1)[C@@H](O)C[C@@H]1[C@@]2(C)CC[C@H](O[C@@H]3O[C@H](CO)[C@@H](O)[C@H](O)[C@H]3O)C(C)(C)[C@@H]2CC[C@]14C", "Tyrosine-protein phosphatase non-receptor type 1 (Homo sapiens) (UniProt P18031)", "Imax", "6%"]
]}
